All figures here come from patent US20240327535A1.

# measured-target: T1, extracellular domain of human BCMA (human, UniProt Q02223 1-54)
# T1 construct: amine-linked to Octet AR2G tips; also called hsBCMA; BCMA (human)
# T1 sequence: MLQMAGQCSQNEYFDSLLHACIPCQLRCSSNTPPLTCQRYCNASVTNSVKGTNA
# experiment-description: Octet BLI; Fab 200 nM
measurement-label: pKd
Formally, pKd is defined as -log10 of the concentration c, with c in mol/L.

Look at this binder and give its reported pKd. AB200-R1H26-R2Vk17 (Fab, V domains shown) VH: QVQLVQSGAEVKKPGSSVKVSCKASGGSFSNYWMHWVRQAPGQGLEWMGATYRIHSDTFYNQKFKGRVTITADKSTSTAYMELSSLRSEDTAVYYCARGAIYHGYDVLDNWGQGTLVTVSS VL: DIQMTQSPSSLSASVGDRVTITCRASQSISSYINWYQQKPGKAPKLLIYAASSLQSGVPSRFSGSGSGTDFTLTISSLQPEDFATYYCQQYRKIPWSFGQGTKLEIKR 8.44

Here is the next binder: AB200-R1H26-R2Vk12 (Fab, V domains shown) VH: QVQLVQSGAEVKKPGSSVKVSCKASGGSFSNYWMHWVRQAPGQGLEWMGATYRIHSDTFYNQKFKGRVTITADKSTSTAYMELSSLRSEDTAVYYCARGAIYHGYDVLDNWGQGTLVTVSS VL: DIQMTQSPSSLSASVGDRVTITCRASQSISSYLNWYQQKPGKAPKLLIYAASSLQSGVPSRFSGSGSGTDFTLTISSLQPEDFATYYCQQYRKIPWSFGQGTKLEIKR 8.43

Here is the next binder: AB200-R1H26-R2Vk32 (Fab, V domains shown) VH: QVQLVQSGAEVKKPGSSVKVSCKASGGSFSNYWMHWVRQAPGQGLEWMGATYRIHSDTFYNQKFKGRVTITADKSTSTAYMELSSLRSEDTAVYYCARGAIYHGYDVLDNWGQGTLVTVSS VL: DIQMTQSPSSLSASVGDRVTITCRASQSISSYLNWYQQKPGKAPKLLIYATSNLQIGVPSRFSGSGSGTDFTLTISSLQPEDFATYYCQQYRKIPWSFGQGTKLEIKR 8.71

Here is the next binder: AB200-R1H26-R2Vk14 (Fab, V domains shown) VH: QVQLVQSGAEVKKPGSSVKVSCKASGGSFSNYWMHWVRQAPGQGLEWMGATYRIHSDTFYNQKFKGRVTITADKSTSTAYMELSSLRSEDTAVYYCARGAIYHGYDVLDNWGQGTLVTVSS VL: DIQMTQSPSSLSASVGDRVTITCRASQSISSYINWYQQKPGKAPKLLIYAASSLQSGVPSRFSGSGSGTDFTLTISSLQPEDFATYYCQQYRRLPWSFGQGTKLEIKR 8.60

Here is the next binder: AB200-R1H26-R2Vk28 (Fab, V domains shown) VH: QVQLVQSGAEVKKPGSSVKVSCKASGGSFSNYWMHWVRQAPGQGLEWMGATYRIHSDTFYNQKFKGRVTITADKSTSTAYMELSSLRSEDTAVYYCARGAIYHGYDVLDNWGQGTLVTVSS VL: DIQMTQSPSSLSASVGDRVTITCRASQSISSYLNWYQQKPGKAPKLLIYATSNIQSGVPSRFSGSGSGTDFTLTISSLQPEDFATYYCQQFRKIPWTFGQGTKLEIKR 8.57
